System: SARS-CoV-2
Assay type: cell-based
Settings: 1 hour pre-treatment, 1 nM-100 μM, MOI 0.05, 48 hours, Vero E6 cells
measured property: effect on Viral Load (viral burden)

1) O=c1c(O)cc([C@H]2Oc3cc(O)cc(O)c3C[C@H]2O)cc2c([C@H]3Oc4cc(O)cc(O)c4C[C@H]3O)cc(O)c(O)c12: did not show an effect
2) Oc1cc(O)c2c(c1)O[C@H](c1ccc(O)c(O)c1)[C@H](O)[C@H]2c1c(O)cc(O)c2c1O[C@H](c1ccc(O)c(O)c1)[C@H](O)C2: did not show an effect
